- target: HIV Env, isolate HIV-16055-2.3 (HIV)
- procedureText: cell-based or functional assay
Could you please report measured IC80 (µg/ml) with constrains for the items listed next?
Note: unit µg/mL is implicit; provide only the numeric part.

Quick note, IC80 (µg/ml) with constrains for ePGDM5 (antibody, V domains shown) VH: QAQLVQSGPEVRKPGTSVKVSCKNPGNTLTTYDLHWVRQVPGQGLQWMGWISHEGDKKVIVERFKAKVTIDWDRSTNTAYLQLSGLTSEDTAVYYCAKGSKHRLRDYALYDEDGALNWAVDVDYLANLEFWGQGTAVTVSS VL: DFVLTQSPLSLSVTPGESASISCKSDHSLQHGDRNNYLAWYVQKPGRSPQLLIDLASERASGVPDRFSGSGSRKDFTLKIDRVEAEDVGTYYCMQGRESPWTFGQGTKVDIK landed at 0.007

Quick note, IC80 (µg/ml) with constrains for ePGDM13 (antibody, V domains shown) VH: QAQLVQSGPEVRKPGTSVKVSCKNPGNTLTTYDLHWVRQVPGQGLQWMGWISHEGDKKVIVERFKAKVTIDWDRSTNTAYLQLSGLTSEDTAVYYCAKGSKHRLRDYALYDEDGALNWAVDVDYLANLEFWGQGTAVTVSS VL: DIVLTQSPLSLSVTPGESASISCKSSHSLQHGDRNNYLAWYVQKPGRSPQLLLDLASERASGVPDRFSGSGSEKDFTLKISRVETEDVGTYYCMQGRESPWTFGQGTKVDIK landed at 0.011

Quick note, IC80 (µg/ml) with constrains for ePGDM9 (antibody, V domains shown) VH: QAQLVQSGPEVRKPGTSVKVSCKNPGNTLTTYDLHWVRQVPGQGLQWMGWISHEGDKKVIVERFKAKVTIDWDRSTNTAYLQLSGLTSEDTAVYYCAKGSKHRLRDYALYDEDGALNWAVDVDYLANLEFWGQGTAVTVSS VL: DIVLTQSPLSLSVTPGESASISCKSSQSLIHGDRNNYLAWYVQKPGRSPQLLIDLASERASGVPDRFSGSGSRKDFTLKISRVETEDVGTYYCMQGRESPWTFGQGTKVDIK landed at 0.006
